The values you see were collected from PubChem BioAssay (NCI).

- System: HT29 colon
- experiment: NCI-60 one-dose screen, 48 h
- experimental.setup: 10 µM unless noted
The panel holds about 83,000 compounds, 20% with a hit somewhere; the sample as a whole holds those more often. Calls of active or inactive are those of the source. The calls were made as follows: active = growth percent below 10; inactive = the rest.
Outcome field: choose from T = active, F = inactive

Study these solved cases before continuing.
GET /call?item= COc1cc(C(=O)n2nc(N3CCN(C)CC3)c3cc(N)ccc32)cc(OC)c1OC returns the recorded outcome of this test.
F

Could you check what this test reported for O=C(Cn1cc(CN2C(=O)c3ccccc3S2(=O)=O)nn1)Nc1nc2ccccc2s1 ?
F

Please share the test call associated with O=C1NC(=O)c2c1c1c3ccccc3ccc1c1[nH]c3ccc(Br)cc3c21 .
F

What did the test return for COc1cc(NC(C)CCCNC(C)C)c2ncccc2c1OC (stereo not given) ?
F

Record request — test call for CC(C)NC1CCC(Nc2ccnc3cc(Cl)ccc23)CC1 (stereo not given)
F

Hi, do you know how Oc1c(Cl)cc(Cl)c2ccc(Cn3cc(-c4cc(C(F)(F)F)cc(C(F)(F)F)c4)nn3)nc12 came out in this test?
F

Please indicate how the test categorized CCN(CC)c1nc(SCc2ccccc2Cl)ncc1C .
F

Hi, sorry to bother you, what did the test record for CCN(CC)CCOc1ccc(C(=C(C)c2ccc(Cl)cc2)c2ccc(OCCN(CC)CC)cc2)cc1 ?
T

New cases:
What did this assay record as the result for COc1ccc2c3c([nH]c2c1)C(=O)c1nc(C)ccc1C3=O ?
F

Please share the test call associated with C=C(C)[C@@H]1CC[C@]2(C(=O)NCCNCCN)CC[C@]3(C)[C@H](CC[C@@H]4[C@@]5(C)C/C(=C/c6ccncc6)C(=O)C(C)(C)[C@@H]5CC[C@]43C)[C@@H]12 .
F

So what was the verdict on O=C(OCc1ccc2c(Cl)cc(Cl)c(O)c2n1)n1cncn1 in this test?
F

Hey, what did the test say about C=C1C(=O)O[C@H]2[C@H]1CC/C(COC(=O)N[C@H]1C[C@H](O[C@H]3C[C@](O)(C(=O)CO)Cc4c(O)c5c(c(O)c43)C(=O)c3c(OC)cccc3C5=O)O[C@@H](C)[C@H]1O)=C\CC[C@@]1(C)O[C@@H]21 ?
F

----------
- System: LOX IMVI melanoma
- experiment: NCI-60 one-dose screen, 48 h
- experimental.setup: 10 µM unless noted
The panel holds about 83,000 compounds, 20% with a hit somewhere; the sample as a whole holds those more often. Calls of active or inactive are those of the source. The calls were made as follows: active = growth percent below 10; inactive = the rest.
In this exercise, the only acceptable responses are active, inactive

Could you kindly confirm the outcome this assay logged for COc1cnc2c(c1)C(=O)c1c-2n(CCCNCCO)c(=O)c2ccncc12 ?
active

----------
- Tested on: NCI-H460 lung
- experiment: NCI-60 one-dose screen, 48 h (100 = growth as untreated, 0 = no growth, -100 = all killed)
- experimental.setup: 10 µM unless noted
About 83,000 compounds went through this panel and 20% of them were active in at least one assay; those are over-represented in the sample as a whole.
Binarize growth at 80%; below is t, at or above is f.

Reference set (5 entries):
For this compound, is growth lower than 80%? CN(C)CCCn1c2c(c3ncccc3c1=O)C(=O)c1ccccc1-2
t

I'd appreciate it if you could check whether CCOC(=O)c1c(C)nc2c(c1N)CC(=O)N2Cc1cc(F)cc(Cl)c1 has growth smaller than 80%.
f

Does CCN(CC)c1nc(SCc2ccccc2Cl)ncc1C have growth strictly under 80%?
f

Field: below-cutoff. Rule: recorded growth strictly less than 80%. Subject: Cc1ccc(-c2nc(/C=C3/C(=O)Nc4ccccc43)c3ccccn23)cc1
t

Strictly below 80% in growth? CN1CCN(Cc2ccc(NC(=O)c3cncc(C#Cc4cnc(N)c5ccccc45)c3)cc2C(F)(F)F)CC1
t

***
Below 80% on growth? Entry CNC(=O)c1cc(Oc2ccc3c(c2)sc2nc(-c4cc(OC)c(OC)c(OC)c4)cn23)ccn1
t

Is growth strictly under 80% for the entry O=c1c2cc(-c3ccccc3)sc2nc2sc(-c3ccccc3)nn12 ?
f

# check: growth < 80% for C#CCOc1ccc2ncnc(Nc3ccc(NC(=O)CCl)cc3)c2c1
t
